Quick reference for mortality at 50 µg/cm2 among some compounds
Tested on: Beet Armyworm (Spodoptera exigua, LAPHEG)
assay-summary: Bioassay on Beet Armyworm (BAW), 128-well diet tray assay
Type: in vivo
particulars: 168 h, 50 μg/cm^2 on artificial diet, second instar larvae, five to seven days, 25° C., read-out: BAW % Control (or Mortality) rating
Method: Example A: Bioassays on Beet Armyworm (Spodoptera exigua, LAPHEG) (“BAW”), Corn Earworm (Helicoverpa zea, HELIZE) (“CEW”), and Cabbage Looper (Trichoplusia ni, TRIPNI) (“CL”) Certain molecules disclosed in this document were tested against BAW, CEW, and CL using procedures described in the following examples. In the reporting of the results, the “BAW, CEW, & CL Rating Table” was used (See Table Section). […]
test-readout: mortality at 50 µg/cm2 (%)

* O=C(NCCc1ccc(-c2ncn(-c3ccc(OC(F)(F)F)cc3)n2)cc1)NC1=C(c2c(Cl)cccc2Cl)C(=O)CO1 | 0
* O=C(NCCc1ccc(-c2ncn(-c3ccc(OC(F)(F)F)cc3)n2)cc1)Nc1nccs1 | 0
* O=C(NCCc1ccc(-c2ncn(-c3ccc(OC(F)(F)F)cc3)n2)cc1)Nc1scnc1-c1c(Cl)cccc1Cl | 0
